# Measurement target: NLRP3 inflammasome (Homo sapiens)
# Construct: endogenous in cells
# Measurement notes: THP-1 IL-1β production inhibition test
# Conditions used: PMA-treated THP-1 cells, LPS 50 ng/mL + ATP 5 mM, 2 hours, IL-1β in supernatant by ELISA
Where a name gives a salt, the structure may show the parent alone.
Assign classes using reported IC50 values and the ranges band 1 = under 9 nM, band 2 = from 9 nM up to 40 nM, band 3 = 40 nM and over, please.

query: Assign a bin to Oc1cc(C(F)(F)F)ccc1-c1nnc(N[C@@H]2CCCC[C@H]2O)c2ccccc12
result: band 1

query: Assign a bin to [O-][S+]1Cc2c(N[C@@H]3CCCC[C@H]3O)nnc(-c3ccc(C(F)(F)F)cc3O)c2C1 (some centres unmarked)
result: band 3

query: Assign a bin to Cc1ccc(-c2nnc(N[C@@H]3CCCC[C@@]3(C)O)c3c2CCCC3)c(O)c1
result: band 2

query: Assign a bin to Cc1ccc(-c2nnc(N[C@H]3C[C@@](C)(O)C3)c3c2CCCC3)c(O)c1
result: band 3

query: Assign a bin to Oc1cc(C(F)(F)F)ccc1-c1nnc(NCC2(O)CCC2)c2ccccc12
result: band 3

query: Assign a bin to Oc1cc(C(F)(F)F)ccc1-c1nnc(N[C@@H]2CCCC[C@H]2O)c2sccc12
result: band 1

query: Assign a bin to CC(=O)N1Cc2c(N[C@@H]3CCCC[C@H]3O)nnc(-c3ccc(C(F)(F)F)cc3O)c2C1
result: band 3

query: Assign a bin to N[C@@H]1CCCC[C@H]1Nc1nnc(-c2ccc(C(F)(F)F)cc2O)c2ccccc12 [Example 82, dihydrochloride]
result: band 2

query: Assign a bin to CC(=O)N1CCC[C@@H](Nc2nnc(-c3ccc(C(F)(F)F)cc3O)c3ccccc23)C1
result: band 2

query: Assign a bin to Cc1cc(O)c(-c2nnc(N[C@@H]3CCCC[C@H]3O)c3c2COCC3)c(F)c1
result: band 2

query: Assign a bin to CN1CCC[C@@H](Nc2nnc(-c3ccc(C(F)F)cc3O)c3c2COCC3)C1
result: band 1

query: Assign a bin to COc1ccc(-c2nnc(N[C@@H]3CCOC[C@H]3O)c3c2CCCCC3)c(O)c1
result: band 2

query: Assign a bin to CN1CCC[C@@H](Nc2nnc(-c3ccc(OC(F)(F)F)cc3O)c3c2COCC3)C1
result: band 1

query: Assign a bin to Cc1cc(O)c(-c2nnc(N[C@@H]3CCCC[C@H]3O)c3c2CCOC3)c(F)c1
result: band 1

query: Assign a bin to Oc1cc(OC(F)(F)F)ccc1-c1nnc(N[C@@H]2CCOC[C@H]2O)c2c1CCCCC2
result: band 2

query: Assign a bin to C[C@]1(O)C[C@@H](Nc2nnc(-c3ccc(OC(F)(F)F)cc3O)c3c2CCCC3)C1
result: band 3

----------
# Measurement target: NLRP3 inflammasome (Homo sapiens, UniProt Q96P20)
# Construct: endogenous in cells
# Sequence (Q96P20 whole entry): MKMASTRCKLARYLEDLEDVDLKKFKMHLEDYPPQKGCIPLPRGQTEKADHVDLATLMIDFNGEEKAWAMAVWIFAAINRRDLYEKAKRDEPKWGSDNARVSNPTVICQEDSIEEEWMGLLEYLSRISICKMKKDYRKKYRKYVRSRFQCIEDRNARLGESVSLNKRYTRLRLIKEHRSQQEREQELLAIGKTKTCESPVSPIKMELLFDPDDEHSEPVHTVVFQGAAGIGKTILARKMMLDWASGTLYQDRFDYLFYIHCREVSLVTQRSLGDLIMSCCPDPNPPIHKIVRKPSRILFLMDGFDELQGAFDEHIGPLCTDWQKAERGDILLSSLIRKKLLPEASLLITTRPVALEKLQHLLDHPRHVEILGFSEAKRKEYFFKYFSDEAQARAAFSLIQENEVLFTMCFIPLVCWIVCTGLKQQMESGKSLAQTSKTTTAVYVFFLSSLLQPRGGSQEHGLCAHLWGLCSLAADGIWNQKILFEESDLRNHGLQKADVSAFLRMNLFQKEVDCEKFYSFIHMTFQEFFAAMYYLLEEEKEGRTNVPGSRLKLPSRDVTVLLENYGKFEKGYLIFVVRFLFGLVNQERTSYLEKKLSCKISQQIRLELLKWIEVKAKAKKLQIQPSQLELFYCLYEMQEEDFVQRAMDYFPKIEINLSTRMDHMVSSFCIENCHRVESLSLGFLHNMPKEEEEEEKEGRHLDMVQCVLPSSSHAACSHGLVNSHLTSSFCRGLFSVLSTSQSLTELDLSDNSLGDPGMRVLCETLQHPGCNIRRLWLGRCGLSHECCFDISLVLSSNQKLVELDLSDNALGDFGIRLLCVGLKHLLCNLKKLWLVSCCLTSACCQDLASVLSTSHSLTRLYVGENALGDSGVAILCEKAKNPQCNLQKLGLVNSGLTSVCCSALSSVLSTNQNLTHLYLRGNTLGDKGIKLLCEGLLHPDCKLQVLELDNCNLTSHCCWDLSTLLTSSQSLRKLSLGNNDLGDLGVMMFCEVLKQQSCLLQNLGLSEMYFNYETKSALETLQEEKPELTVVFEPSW
# Measurement notes: THP-1 IL-1β production inhibition test
# Conditions used: PMA-treated THP-1 cells, LPS 50 ng/mL + ATP 5 mM, 2 hours, IL-1β in supernatant by ELISA
pIC50: −log10 of the molar value.
Classification field: enter T for pIC50 values not below 8, F for values below it.

query: Kindly determine if pIC50 recorded for CC(=O)N1CCc2c(-c3ccc(C(F)(F)F)cc3C(F)(F)F)nnc(NC[C@@H](C)O)c2C1 [Example 79] is above or exactly 8.
result: F

query: Kindly determine if pIC50 recorded for N#C[C@@H]1CCCC[C@H]1Nc1nnc(-c2ccc(C(F)(F)F)cc2O)c2c1COCC2 [72(1)] is above or exactly 8.
result: F

query: Kindly determine if pIC50 recorded for CC(=O)NCCCCNc1nnc(-c2ccc(C(F)(F)F)cc2O)c2c1COCC2 [Example 118] is above or exactly 8.
result: T

query: Kindly determine if pIC50 recorded for O=S1(=O)CCc2c(-c3ccc(C(F)(F)F)cc3O)nnc(N[C@@H]3CCCC[C@H]3O)c2C1 [Example 129] is above or exactly 8.
result: F

query: Kindly determine if pIC50 recorded for C[C@]1(O)C[C@@H](Nc2nnc(-c3ccc(C(F)(F)F)cc3O)c3c2CCC3)C1 [Example 59] is above or exactly 8.
result: F

query: Kindly determine if pIC50 recorded for Oc1cc(Cl)ccc1-c1nnc(N[C@@H]2CCCC[C@H]2O)c2c1CCCC2 [Example 25] is above or exactly 8.
result: T

query: Kindly determine if pIC50 recorded for COc1ccc(-c2nnc(N[C@@H]3CCCN(C)C3)c3c2CCOC3)c(O)c1 [Example 110] is above or exactly 8.
result: T

----------
For each record, write down the corresponding IC50.
# Measurement target: NLRP3 inflammasome (Homo sapiens, UniProt Q96P20)
# Construct: endogenous in cells
# Measurement notes: THP-1 IL-1β production inhibition test
# Conditions used: PMA-treated THP-1 cells, LPS 50 ng/mL + ATP 5 mM, 2 hours, IL-1β in supernatant by ELISA

query: Which measured IC50 value corresponds to CN1CCC[C@@H](Nc2nnc(-c3ccc(C(F)(F)F)cc3O)c3c2CCOCC3)C1 [Example 105] ?
result: 8.9 nM

query: Which measured IC50 value corresponds to Oc1cc(C(F)(F)F)ccc1-c1nnc(N[C@@H]2CCCC[C@H]2O)c2c1CCCOC2 [108(2)] ?
result: 3 nM

query: Which measured IC50 value corresponds to O=S1(=O)CCC(Oc2nnc(-c3ccc(C(F)(F)F)cc3O)c3ccccc23)CC1 [Example 10] ?
result: 24 nM

query: Which measured IC50 value corresponds to Oc1cc(C(F)(F)F)ccc1-c1nnc(N[C@@H]2CCCC[C@H]2O)c2c1CCOCC2 [Example 5] ?
result: 4.7 nM

query: Which measured IC50 value corresponds to Oc1cc(OC(F)(F)F)ccc1-c1nnc(N[C@@H]2CCCC[C@H]2O)c2c1CCCCC2 [Example 43] ?
result: 8.7 nM

query: Which measured IC50 value corresponds to Oc1cc(C(F)(F)F)ccc1-c1nnc(N[C@@H]2CCCC[C@H]2O)c2c1CNC2 [Example 98] ?
result: 95 nM

query: Which measured IC50 value corresponds to Cc1ccc(-c2nnc(NCCCO)c3c2CCCC3)cc1 [Example 6] ?
result: 9000 nM

query: Which measured IC50 value corresponds to CN1CCC[C@@H](Nc2nnc(-c3ccc(OC(F)F)cc3O)c3c2COCC3)C1 [Example 124] ?
result: 0.62 nM

query: Which measured IC50 value corresponds to Oc1cc(C(F)(F)F)ccc1-c1nnc(N[C@@H]2CCCC[C@H]2O)c2c1CCC2 [Example 19] ?
result: 81 nM

query: Which measured IC50 value corresponds to N[C@@H]1CCCC[C@H]1Nc1nnc(-c2ccc(C(F)(F)F)cc2O)c2c1CCOC2 [Example 95] ?
result: 61 nM

query: Which measured IC50 value corresponds to Oc1cc(C(F)(F)F)ccc1-c1nnc(N[C@@H]2CCCC[C@H]2O)c2c1CCOC2 [Example 2(1)] ?
result: 3.4 nM

query: Which measured IC50 value corresponds to C[C@]1(O)C[C@@H](Nc2nnc(-c3ccc(Cl)cc3O)c3c2CCCC3)C1 [Example 30] ?
result: 22 nM

query: Which measured IC50 value corresponds to CC(=O)N1CCC[C@@H](Nc2nnc(-c3ccc(C(F)(F)F)cc3O)c3c2CSC3)C1 [Example 119] ?
result: 6 nM

query: Which measured IC50 value corresponds to Oc1cc(C(F)(F)F)c(F)cc1-c1nnc(N[C@@H]2CCCC[C@H]2O)c2c1CCCC2 [Example 85] ?
result: 58 nM

query: Which measured IC50 value corresponds to Oc1cc(C(F)(F)F)ccc1-c1nnc(N[C@H]2CCCC[C@@H]2O)c2c1COCC2 [66(1)] ?
result: 990 nM

query: Which measured IC50 value corresponds to C[C@@H](O)CNc1nnc(-c2ccc(C(F)(F)F)cc2O)c2ccncc12 [16(1)] ?
result: 1.9 nM

query: Which measured IC50 value corresponds to Oc1cc(C(F)(F)F)ccc1-c1nnc(N[C@@H]2CCCN(C3CC3)C2)c2c1CSC2 [Example 126] ?
result: 7.1 nM

----------
# Measurement target: NLRP3 inflammasome (Homo sapiens)
# Construct: endogenous in cells
# Measurement notes: THP-1 IL-1β production inhibition test
# Conditions used: PMA-treated THP-1 cells, LPS 50 ng/mL + ATP 5 mM, 2 hours, IL-1β in supernatant by ELISA
Assay metric: pIC50
Note on units: pIC50 is unitless, being -log10 of a concentration expressed in mol/L.

query: Missing value: pIC50, NLRP3 inflammasome (Homo sapiens), entry CN1CCC[C@@H](Nc2nnc(-c3ccc(C(F)(F)F)cc3O)c3c2CSC3(C)C)C1 . Fill in?
result: 7.33

query: Missing value: pIC50, NLRP3 inflammasome (Homo sapiens), entry Oc1cc(OC(F)(F)F)ccc1-c1nnc(N[C@@H]2CCCC[C@H]2O)c2c1CCOC2 [Example 3(1)] . Fill in?
result: 8.66

query: Missing value: pIC50, NLRP3 inflammasome (Homo sapiens), entry Oc1cc(C(F)(F)F)ccc1-c1nnc(N[C@@H]2CCCC[C@H]2O)c2c1CCCC2 [Example 1] . Fill in?
result: 8.00

query: Missing value: pIC50, NLRP3 inflammasome (Homo sapiens), entry C[C@]1(O)C[C@@H](Nc2nnc(-c3ccc(OC(F)(F)F)cc3O)c3c2COCC3)C1 . Fill in?
result: 7.72

query: Missing value: pIC50, NLRP3 inflammasome (Homo sapiens), entry CN1CCC[C@@H](Nc2nnc(-c3ccc(Cl)cc3O)c3c2COCC3)C1 . Fill in?
result: 8.82

query: Missing value: pIC50, NLRP3 inflammasome (Homo sapiens), entry CCN1CCc2c(-c3ccc(C(F)(F)F)cc3O)nnc(N[C@@H]3CCCC[C@H]3O)c2C1 . Fill in?
result: 7.27

query: Missing value: pIC50, NLRP3 inflammasome (Homo sapiens), entry CN1Cc2c(N[C@@H]3CCCC[C@H]3O)nnc(-c3ccc(C(F)(F)F)cc3O)c2C1 . Fill in?
result: 7.80

query: Missing value: pIC50, NLRP3 inflammasome (Homo sapiens), entry CC(=O)N1CCc2c(-c3ccc(C(F)(F)F)cc3O)nnc(N[C@@H]3CCCC[C@H]3O)c2C1 . Fill in?
result: 7.33

query: Missing value: pIC50, NLRP3 inflammasome (Homo sapiens), entry CN1CCc2c(-c3ccc(C(F)(F)F)cc3O)nnc(N[C@@H]3CCCC[C@H]3O)c2C1 . Fill in?
result: 8.12
